compounds and their reported cAMP production activity (%)
experimental.target: human PTH1 receptor (Homo sapiens)
Sequence (Q03431 27-593): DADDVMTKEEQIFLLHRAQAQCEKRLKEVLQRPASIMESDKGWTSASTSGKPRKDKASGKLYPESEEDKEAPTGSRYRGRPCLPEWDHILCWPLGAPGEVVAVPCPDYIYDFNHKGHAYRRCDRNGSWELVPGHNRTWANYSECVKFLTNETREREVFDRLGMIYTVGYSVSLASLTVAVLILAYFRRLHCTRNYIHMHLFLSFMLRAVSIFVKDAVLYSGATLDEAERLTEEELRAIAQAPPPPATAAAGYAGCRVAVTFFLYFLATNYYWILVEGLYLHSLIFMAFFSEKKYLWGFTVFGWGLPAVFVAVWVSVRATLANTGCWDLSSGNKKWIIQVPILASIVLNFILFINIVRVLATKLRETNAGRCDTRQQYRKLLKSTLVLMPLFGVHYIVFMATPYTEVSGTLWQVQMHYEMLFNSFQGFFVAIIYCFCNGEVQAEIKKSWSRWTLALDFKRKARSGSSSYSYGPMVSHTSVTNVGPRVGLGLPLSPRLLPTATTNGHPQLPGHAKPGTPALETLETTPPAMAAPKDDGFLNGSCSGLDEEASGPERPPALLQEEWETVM
assay.details: In vitro cAMP signal activity in HKRK-B7 cells (LLC-PK1 cells overexpressing the human PTH1 receptor)
Assay type: cell-based
experimental.context: HKRK-B7 cells; compound at 1×10^−3 M; cAMP produced as percentage of that produced by hPTH(1-34) at 100 nM
Give the number first and the unit second.

compound: Cc1cc(OC[C@H](O)CO)cc(C)c1/C=C/S(=O)(=O)N1CCC2(CC1)N=C(c1ccc3c(c1)OC(F)(F)O3)NC2=O
cAMP production activity (%): 4.3%

compound: CC(=O)Nc1ccc(CCS(=O)(=O)N2CCC3(CC2)N=C(C2CCCC2)NC3=O)c(C)c1
cAMP production activity (%): 56%

compound: O=C1NC(C2CCC(F)(F)CC2)=NC12CCN(S(=O)(=O)/C=C/c1cccc3c1ccn3C[C@H](O)CO)CC2
cAMP production activity (%): 44%

compound: CC(=O)Nc1ccc(CCS(=O)(=O)N2CCC3(CC2)N=C([C@H]2CCC[C@@H](C)C2)NC3=O)c(C)c1
cAMP production activity (%): 76%

compound: O=C1NC(C2CCCCC2)=NC12CCN(S(=O)(=O)CCc1cccc3c1ccn3C[C@H](O)CO)CC2
cAMP production activity (%): 72%

compound: Cc1cc(C(=O)N(C)C)ccc1CCS(=O)(=O)N1CCC2(CC1)N=C(Cc1cccc(C(F)(F)F)c1)NC2=O
cAMP production activity (%): 67%

compound: CC(=CS(=O)(=O)N1CCC2(CC1)N=C(C1CCC(C)CC1)NC2=O)c1c(C)cc(N(C)C(N)=O)cc1C (stereo not drawn)
cAMP production activity (%): 91%

compound: Cc1cc(C(=O)N(C)C)ccc1CCS(=O)(=O)N1CCC2(CC1)N=C(Cc1ccc(Cl)cc1Cl)NC2=O
cAMP production activity (%): 77%

compound: CN(C)CCNC(=O)Cc1ccc(/C=C/S(=O)(=O)N2CCC3(CC2)N=C(C2CCCCC2)NC3=O)cc1
cAMP production activity (%): 22%

compound: CCOC(=O)CCCCCCCCCCCC1=NC2(CCN(S(=O)(=O)CCc3c(C)cc(N(C)C(N)=O)cc3C)CC2)C(=O)N1
cAMP production activity (%): 87%

Given CCCCC1CCC(C2=NC3(CCN(S(=O)(=O)/C=C/c4c(C)cc(N(CCOCCF)C(C)=O)cc4C)CC3)C(=O)N2)CC1 (stereo not drawn) , respond with its cAMP production activity (%).
74%
